SYSTEM_TESTED: PI3Kβ (p110β/p85α) (Homo sapiens, UniProt P42338)
Construct: N-terminal histidine-tagged recombinant full-length human p110β; His tag (N)
Sequence (P42338 whole entry): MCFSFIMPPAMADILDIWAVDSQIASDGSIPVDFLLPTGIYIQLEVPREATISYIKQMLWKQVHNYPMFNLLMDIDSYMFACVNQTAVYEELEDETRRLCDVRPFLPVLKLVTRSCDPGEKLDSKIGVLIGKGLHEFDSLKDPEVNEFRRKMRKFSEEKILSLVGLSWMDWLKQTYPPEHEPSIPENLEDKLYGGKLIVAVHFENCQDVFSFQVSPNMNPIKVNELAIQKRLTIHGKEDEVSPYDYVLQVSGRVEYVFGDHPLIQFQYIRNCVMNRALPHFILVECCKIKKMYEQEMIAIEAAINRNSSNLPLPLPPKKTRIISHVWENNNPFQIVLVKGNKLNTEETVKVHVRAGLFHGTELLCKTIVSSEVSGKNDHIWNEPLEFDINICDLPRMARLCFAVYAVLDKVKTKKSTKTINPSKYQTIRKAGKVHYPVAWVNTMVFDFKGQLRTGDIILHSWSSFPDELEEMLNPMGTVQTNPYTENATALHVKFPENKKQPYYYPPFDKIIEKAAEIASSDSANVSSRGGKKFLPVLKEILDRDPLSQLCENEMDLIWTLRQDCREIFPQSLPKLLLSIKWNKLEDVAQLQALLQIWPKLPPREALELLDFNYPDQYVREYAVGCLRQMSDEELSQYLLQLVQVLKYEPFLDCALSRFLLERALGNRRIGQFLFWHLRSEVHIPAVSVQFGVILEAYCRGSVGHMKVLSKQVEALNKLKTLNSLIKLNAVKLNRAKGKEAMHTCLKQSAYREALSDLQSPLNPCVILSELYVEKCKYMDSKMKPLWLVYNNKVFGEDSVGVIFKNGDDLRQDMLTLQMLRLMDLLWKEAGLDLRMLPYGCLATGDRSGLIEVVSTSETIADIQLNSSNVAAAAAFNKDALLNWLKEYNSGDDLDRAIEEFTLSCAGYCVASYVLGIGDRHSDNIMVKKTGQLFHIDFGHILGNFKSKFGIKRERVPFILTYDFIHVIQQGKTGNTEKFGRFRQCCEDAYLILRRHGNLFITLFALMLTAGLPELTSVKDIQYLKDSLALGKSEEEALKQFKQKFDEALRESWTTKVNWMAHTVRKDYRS
Sequence (P27986 whole entry partner): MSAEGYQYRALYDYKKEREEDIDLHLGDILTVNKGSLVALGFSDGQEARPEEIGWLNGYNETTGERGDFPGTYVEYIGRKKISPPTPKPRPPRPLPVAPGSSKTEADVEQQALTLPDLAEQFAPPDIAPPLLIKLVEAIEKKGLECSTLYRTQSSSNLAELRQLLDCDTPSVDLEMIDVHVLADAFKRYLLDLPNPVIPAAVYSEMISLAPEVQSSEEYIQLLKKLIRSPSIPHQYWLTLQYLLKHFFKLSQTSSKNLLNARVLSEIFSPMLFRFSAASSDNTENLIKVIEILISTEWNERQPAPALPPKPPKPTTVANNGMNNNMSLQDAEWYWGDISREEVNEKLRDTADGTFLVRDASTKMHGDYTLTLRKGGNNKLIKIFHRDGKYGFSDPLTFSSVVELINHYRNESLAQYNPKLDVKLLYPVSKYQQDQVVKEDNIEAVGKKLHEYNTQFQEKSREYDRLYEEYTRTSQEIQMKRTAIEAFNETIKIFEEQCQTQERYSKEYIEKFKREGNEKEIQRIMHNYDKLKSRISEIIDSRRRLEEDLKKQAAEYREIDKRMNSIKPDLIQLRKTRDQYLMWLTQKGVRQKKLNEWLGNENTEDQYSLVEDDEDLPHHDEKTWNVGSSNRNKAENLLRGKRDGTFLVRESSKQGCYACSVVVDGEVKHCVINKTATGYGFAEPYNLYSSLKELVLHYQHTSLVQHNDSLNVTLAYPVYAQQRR
ASSAY_INFO: PI3Kβ TR-FRET (HTRF) assay
CONDITIONS_USED: 10 μM ATP
PROPERTY_MEASURED: IC50

Record summary for "CN(Cc1cc2nc(-c3ccc(N)cc3)nc(N3CCOCC3)c2s1)c1ncc(C(=O)NO)cn1" : reported IC50 = < 100 nM

====

Test system: HCT116 cells
ASSAY_INFO: Cell proliferation assay Method B, HCT116
Format: cell-based
CONDITIONS_USED: Homo sapiens, HCT-116, Colon, 72 hours, read-out: antiproliferative activity IC50, HCT116
PROPERTY_MEASURED: IC50

Record summary for CS(=O)(=O)N1CCN(Cc2cc3nc(-c4cccc5[nH]ncc45)nc(N4CCOCC4)c3s2)CC1 [GDC-0941, reference compound] : reported IC50 = 1 to 10 µM
